These measurements were taken from ChEMBL document CHEMBL4715693.

- procedure-summary: Cytotoxicity against human HEL cells assessed as changes in cell morphology incubated for 3 to 6 days by light microscopy
- Format: cell-based
- measurement-context: time 3-6 day
measurement-label: MCC

Quick one: MCC of `C=CCN1C(=O)CS/C1=N\NC(=O)c1[nH]c2ccc(F)cc2c1-c1ccccc1` ?
> 100 µg/mL

And then `C=CCNC(=S)NNC(=O)c1[nH]c2ccc(F)cc2c1-c1ccccc1` , what is it?
20 µg/mL

Also check `CCCNC(=S)NNC(=O)c1[nH]c2ccc(F)cc2c1-c1ccccc1`
20 µg/mL

Same question, `CN1C(=O)CS/C1=N\NC(=O)c1[nH]c2ccc(F)cc2c1-c1ccccc1` this time
> 100 µg/mL

Can you handle `O=C(NNC(=S)NCc1ccccc1)c1[nH]c2ccc(F)cc2c1-c1ccccc1` next?
> 10 µg/mL

Do the same for `Nc1nc2c(ncn2COC(CO)CO)c(=O)[nH]1` please
> 100 µM

Please answer likewise for `CCCCNC(=S)NNC(=O)c1[nH]c2ccc(F)cc2c1-c1ccccc1`
> 10 µg/mL

Would you kindly repeat that for `O=C(N/N=C1\SCC(=O)N1Cc1ccccc1)c1[nH]c2ccc(F)cc2c1-c1ccccc1` ?
> 10 µg/mL

And what about the compound `CCCN1C(=O)CS/C1=N\NC(=O)c1[nH]c2ccc(F)cc2c1-c1ccccc1` ?
> 100 µg/mL

Try the compound `NC(=O)c1ncn([C@@H]2O[C@H](CO)[C@@H](O)[C@H]2O)n1`
> 250 µM

Next record, please: `CCNC(=S)NNC(=O)c1[nH]c2ccc(F)cc2c1-c1ccccc1`
20 µg/mL

// same read-out, input: `CNC(=S)NNC(=O)c1[nH]c2ccc(F)cc2c1-c1ccccc1`
20 µg/mL

Repeat with `CCCCN1C(=O)CS/C1=N\NC(=O)c1[nH]c2ccc(F)cc2c1-c1ccccc1`
> 10 µg/mL

Another: `O=C(NNC(=S)NCCc1ccccc1)c1[nH]c2ccc(F)cc2c1-c1ccccc1`
10 µg/mL

Same again, this time with `CCN1C(=O)CS/C1=N\NC(=O)c1[nH]c2ccc(F)cc2c1-c1ccccc1`
> 100 µg/mL

Again, but for `O=C(N/N=C1\SCC(=O)N1CCc1ccccc1)c1[nH]c2ccc(F)cc2c1-c1ccccc1`
> 10 µg/mL

----------
- Test system: MT4
- procedure-summary: Cytotoxicity against human MT4 cells assessed as reduction in cell viability incubated for 3 to 6 days by MTS assay
- Format: cell-based
- measurement-context: time 3-6 day
measurement-label: CC50 (µg/mL)
Write the value in µg/mL as a bare number.

CC50 lookup needed for `CCCNC(=S)NNC(=O)c1[nH]c2ccc(F)cc2c1-c1ccccc1` , thanks.
11

How about this compound: `CCNC(=S)NNC(=O)c1[nH]c2ccc(F)cc2c1-c1ccccc1`
14

Thanks! And `CNC(=S)NNC(=O)c1[nH]c2ccc(F)cc2c1-c1ccccc1` ?
18

Queued: `CCCCNC(=S)NNC(=O)c1[nH]c2ccc(F)cc2c1-c1ccccc1`
11

And `O=C(N/N=C1\SCC(=O)N1Cc1ccccc1)c1[nH]c2ccc(F)cc2c1-c1ccccc1` ?
38

And `O=C(NNC(=S)NCc1ccccc1)c1[nH]c2ccc(F)cc2c1-c1ccccc1` ?
11

Field entry: `O=C(NNC(=S)NCCc1ccccc1)c1[nH]c2ccc(F)cc2c1-c1ccccc1`
11

----------
- procedure-summary: Cytotoxicity against cat CRFK cells assessed as reduction in cell viability incubated for 3 to 6 days by MTS assay
- Type: cell-based, Felis catus
- measurement-context: crfk, time 3-6 day
Exercise: state measured CC50 for each of the compounds provided.
Just the number please, in µg/mL, no unit attached.

Fill in: CC50 of `O=C(NNC(=S)NCc1ccccc1)c1[nH]c2ccc(F)cc2c1-c1ccccc1` is ___
1.9

Repeat with `CNC(=S)NNC(=O)c1[nH]c2ccc(F)cc2c1-c1ccccc1`
7.5

# repeat for `CCNC(=S)NNC(=O)c1[nH]c2ccc(F)cc2c1-c1ccccc1`
2.9

----------
- procedure-summary: Cytotoxicity against cat CRFK cells assessed as reduction in cell viability incubated for 3 to 6 days by MTS assay
- Type: cell-based, Felis catus
- measurement-context: crfk, time 3-6 day
Hi! Just check whether CC50 is below 9 µg/mL. Below gives True, equal or above gives False.

Lab log: compare recorded CC50 with 9 µg/mL; is it strictly lower for `C=CCN1C(=O)CS/C1=N\NC(=O)c1[nH]c2ccc(F)cc2c1-c1ccccc1` ?
False

Same read-out for `CCCCN1C(=O)CS/C1=N\NC(=O)c1[nH]c2ccc(F)cc2c1-c1ccccc1` ?
False

Let us now turn to `CN1C(=O)CS/C1=N\NC(=O)c1[nH]c2ccc(F)cc2c1-c1ccccc1`
False

Now give it for `O=C(NNC(=S)NCCc1ccccc1)c1[nH]c2ccc(F)cc2c1-c1ccccc1` too.
True

Entry `CCCNC(=S)NNC(=O)c1[nH]c2ccc(F)cc2c1-c1ccccc1` please
False

Now this one: `O=C(N/N=C1\SCC(=O)N1CCc1ccccc1)c1[nH]c2ccc(F)cc2c1-c1ccccc1`
False

Quick one: `C=CCNC(=S)NNC(=O)c1[nH]c2ccc(F)cc2c1-c1ccccc1`
True

Next compound: `O=C(N/N=C1\SCC(=O)N1Cc1ccccc1)c1[nH]c2ccc(F)cc2c1-c1ccccc1`
False

Moving on to `CCCN1C(=O)CS/C1=N\NC(=O)c1[nH]c2ccc(F)cc2c1-c1ccccc1`
False

Ok, now `CCCCNC(=S)NNC(=O)c1[nH]c2ccc(F)cc2c1-c1ccccc1`
True

----------
- procedure-summary: Selectivity index, ratio of MCC for African green monkey Vero cells to EC50 for Human coxsackievirus B4 infected in African green monkey Vero cells
- Assay type: toxicity
measurement-label: selectivity ratio
Just the number, please.

So what does the record say about selectivity ratio for `CCCNC(=S)NNC(=O)c1[nH]c2ccc(F)cc2c1-c1ccccc1` ?
56

Now consider `CNC(=S)NNC(=O)c1[nH]c2ccc(F)cc2c1-c1ccccc1` and answer again.
12

Now give it for `C=CCNC(=S)NNC(=O)c1[nH]c2ccc(F)cc2c1-c1ccccc1` too.
10

Same for `CCNC(=S)NNC(=O)c1[nH]c2ccc(F)cc2c1-c1ccccc1`
50

----------
I'd be grateful if you could share measured MCC for these entries.
- procedure-summary: Cytotoxicity against African green monkey Vero cells assessed as changes in cell morphology incubated for 3 to 6 days by light microscopy
- Format: cell-based
- measurement-context: chlorocebus sabaeus, time 3-6 day
Only the number, expressed in µg/mL, is required.

What does the data say about its MCC? Entry: `CCNC(=S)NNC(=O)c1[nH]c2ccc(F)cc2c1-c1ccccc1`
20

Now give it for `O=C(N/N=C1\SCC(=O)N1CCc1ccccc1)c1[nH]c2ccc(F)cc2c1-c1ccccc1` too.
10

`C=CCNC(=S)NNC(=O)c1[nH]c2ccc(F)cc2c1-c1ccccc1` , same question.
20

Next record, please: `O=C(NNC(=S)NCCc1ccccc1)c1[nH]c2ccc(F)cc2c1-c1ccccc1`
10

One more compound: `CNC(=S)NNC(=O)c1[nH]c2ccc(F)cc2c1-c1ccccc1`
20

----------
- procedure-summary: Cytotoxicity against dog MDCK cells assessed as changes in cell morphology incubated for 3 to 6 days by light microscopy
- Assay type: cell-based, Canis lupus familiaris
- measurement-context: time 3-6 day
measurement-label: MCC
Note: state the figure and append the unit.

Entry under review: `O=C(NNC(=S)NCCc1ccccc1)c1[nH]c2ccc(F)cc2c1-c1ccccc1` . Reported MCC?
2 µg/mL

And `CNC(=S)NNC(=O)c1[nH]c2ccc(F)cc2c1-c1ccccc1` ?
20 µg/mL

What about `CCCNC(=S)NNC(=O)c1[nH]c2ccc(F)cc2c1-c1ccccc1` ?
0.8 µg/mL

Repeat for the following molecule: `CCCCNC(=S)NNC(=O)c1[nH]c2ccc(F)cc2c1-c1ccccc1`
10 µg/mL

Same lookup for `CCNC(=S)NNC(=O)c1[nH]c2ccc(F)cc2c1-c1ccccc1` , please.
4 µg/mL

Same thing, different molecule: `C=CCNC(=S)NNC(=O)c1[nH]c2ccc(F)cc2c1-c1ccccc1`
4 µg/mL

----------
- procedure-summary: Cytotoxicity against human HeLa cells assessed as changes in cell morphology incubated for 3 to 6 days by light microscopic analysis
- Format: cell-based
- measurement-context: time 3-6 day
For each entry below, report its MCC value.
Unit µg/mL implied. Number only.

Returns the measured MCC for the input compound. Input: `CCCCNC(=S)NNC(=O)c1[nH]c2ccc(F)cc2c1-c1ccccc1`
4

Entry to check: `O=C(NNC(=S)NCc1ccccc1)c1[nH]c2ccc(F)cc2c1-c1ccccc1`
4

What do you get for `O=C(NNC(=S)NCCc1ccccc1)c1[nH]c2ccc(F)cc2c1-c1ccccc1` ?
4

Field entry: `C=CCNC(=S)NNC(=O)c1[nH]c2ccc(F)cc2c1-c1ccccc1`
20

Try this compound too: `CCNC(=S)NNC(=O)c1[nH]c2ccc(F)cc2c1-c1ccccc1`
20

`CNC(=S)NNC(=O)c1[nH]c2ccc(F)cc2c1-c1ccccc1` , same question.
20

Thanks! And `CCCNC(=S)NNC(=O)c1[nH]c2ccc(F)cc2c1-c1ccccc1` ?
20
